Value source: the RNAGym collection of RNA variant scans (doi:10.7554/elife.80360)

B1: HDV Ribozyme (parent)
chain: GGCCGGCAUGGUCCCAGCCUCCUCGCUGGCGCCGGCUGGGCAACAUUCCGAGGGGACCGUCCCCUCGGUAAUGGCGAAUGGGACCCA

# Variants of: B1
# assay method text: self-cleavage, relative activity (ratio to wild type); higher = more cleavage; co-transcriptional
self-cleavage by entry:
Field format: numeric only.

Reference set (5 entries):
A16U C66A = 0.831
C3U C21A = 0.122
A51C U69C = 0.931
G11A U79G = 0.0923
G10U G35U = 0.337

Attention now shifts to the item below.
**Q:** Dear colleague, I am looking for the recorded self-cleavage of the following variant: U60G A71U
**A:** 0.918
